assay: self-splicing fitness, log relative to wild type (ln ratio); higher = more splicing; Tetrahymena group I intron in knt gene, E. coli kanamycin selection, DiMSum; sequences stand for … in CUCUCU…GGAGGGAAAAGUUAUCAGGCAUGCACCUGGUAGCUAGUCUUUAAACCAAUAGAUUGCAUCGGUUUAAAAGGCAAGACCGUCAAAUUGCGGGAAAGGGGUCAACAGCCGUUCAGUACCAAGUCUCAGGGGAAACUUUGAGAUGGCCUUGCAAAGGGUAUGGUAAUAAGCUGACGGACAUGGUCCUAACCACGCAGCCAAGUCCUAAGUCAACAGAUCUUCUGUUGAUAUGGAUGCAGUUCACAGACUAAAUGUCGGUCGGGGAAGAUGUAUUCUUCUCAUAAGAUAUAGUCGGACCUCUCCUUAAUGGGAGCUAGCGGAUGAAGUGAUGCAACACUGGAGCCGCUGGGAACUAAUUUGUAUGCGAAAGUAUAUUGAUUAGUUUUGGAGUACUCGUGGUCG; conditions: 37 °C;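 further: selection with 25 µg/mL kanamycin versus none on LB agar overnight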
Assign Yes to entries whose self-splicing fitness (ln) meets or exceeds -1; assign No to the rest.

{"residueString": "CGCUAGCAAUAUUACGCAAU", "category": "No"}
{"residueString": "AAAUAGCAAUAUUACGCCCU", "category": "Yes"}
{"residueString": "CUGAAGCAAUAUUACGGGAU", "category": "No"}
{"residueString": "AUCUAGCAAUAUUACGAGCA", "category": "Yes"}
{"residueString": "AAGAAGCAAUAUUACGAAGA", "category": "No"}
{"residueString": "UAGCAGCAAUAUUACGCGCU", "category": "No"}
{"residueString": "UACUAGCAAUAUUACGCGAU", "category": "No"}
{"residueString": "CCGCAGCAAUAUUACGUAGA", "category": "No"}
{"residueString": "AGUUAGCAAUAUUACGUUCA", "category": "Yes"}
{"residueString": "CCCCAGCAAUAUUACGAGAA", "category": "No"}
{"residueString": "UAGCAGCAAUAUUACGCGCG", "category": "Yes"}
{"residueString": "UCCAAGCAAUAUUACGUGUA", "category": "Yes"}
{"residueString": "UGAUAGCAAUAUUACGUCGC", "category": "No"}
{"residueString": "CGGAAGCAAUAUUACGUCGA", "category": "No"}
{"residueString": "GUGAAGCAAUAUUACGCGAG", "category": "Yes"}
{"residueString": "AAUCAGCAAUAUUACGGAAA", "category": "Yes"}
{"residueString": "CCCCAGCAAUAUUACGUCGC", "category": "No"}
{"residueString": "UCCGAGCAAUAUUACGUUGC", "category": "No"}
{"residueString": "AGGUAGCAAUAUUACGUCCU", "category": "No"}
{"residueString": "CUUUAGCAAUAUUACGGGAC", "category": "No"}
{"residueString": "AGCAAGCAAUAUUACGCCAU", "category": "No"}
{"residueString": "GCUAAGCAAUAUUACGGCGU", "category": "Yes"}
{"residueString": "UCCCAGCAAUAUUACGAACU", "category": "No"}
{"residueString": "GGAAAGCAAUAUUACGACCG", "category": "Yes"}
{"residueString": "ACGUAGCAAUAUUACGGUAG", "category": "No"}
{"residueString": "UCUGAGCAAUAUUACGCUUG", "category": "No"}
{"residueString": "UUAAAGCAAUAUUACGUUAU", "category": "No"}
{"residueString": "GUGGAGCAAUAUUACGGGUG", "category": "No"}
{"residueString": "AGUAAGCAAUAUUACGAGGU", "category": "No"}
{"residueString": "CAUGAGCAAUAUUACGACAC", "category": "No"}
{"residueString": "GACGAGCAAUAUUACGCUCA", "category": "Yes"}
{"residueString": "GUAGAGCAAUAUUACGUCUU", "category": "Yes"}
{"residueString": "CGGGAGCAAUAUUACGUUUG", "category": "No"}
{"residueString": "ACUGAGCAAUAUUACGACAU", "category": "No"}
{"residueString": "CGUUAGCAAUAUUACGGAAC", "category": "No"}
{"residueString": "CGUCAGCAAUAUUACGAAAU", "category": "No"}
{"residueString": "ACGGAGCAAUAUUACGAGUG", "category": "No"}
{"residueString": "ACUGAGCAAUAUUACGUAUC", "category": "No"}
{"residueString": "CAGGAGCAAUAUUACGGGUC", "category": "No"}
{"residueString": "UCAUAGCAAUAUUACGGUAC", "category": "No"}
{"residueString": "GUGGAGCAAUAUUACGCAGG", "category": "No"}
{"residueString": "GUCGAGCAAUAUUACGACUA", "category": "No"}
{"residueString": "CAGGAGCAAUAUUACGUCAC", "category": "No"}
{"residueString": "AAGAAGCAAUAUUACGUGUU", "category": "No"}
{"residueString": "AAACAGCAAUAUUACGUUUA", "category": "Yes"}
{"residueString": "AAAAAGCAAUAUUACGGGGU", "category": "No"}
{"residueString": "GUCCAGCAAUAUUACGUGCU", "category": "Yes"}
{"residueString": "CAGAAGCAAUAUUACGUCAU", "category": "No"}
{"residueString": "AGGCAGCAAUAUUACGAAUU", "category": "No"}
{"residueString": "UGCCAGCAAUAUUACGGCAC", "category": "No"}
{"residueString": "AGUCAGCAAUAUUACGUCCU", "category": "Yes"}
{"residueString": "AAAAAGCAAUAUUACGUAAA", "category": "No"}
{"residueString": "UACAAGCAAUAUUACGGAAU", "category": "No"}
{"residueString": "GACCAGCAAUAUUACGGAGU", "category": "Yes"}
{"residueString": "CCUCAGCAAUAUUACGCAGG", "category": "No"}
{"residueString": "ACAAAGCAAUAUUACGAGCA", "category": "Yes"}
{"residueString": "AGUAAGCAAUAUUACGCAUC", "category": "No"}
{"residueString": "UUCGAGCAAUAUUACGAGGC", "category": "No"}
{"residueString": "AUAUAGCAAUAUUACGUAAC", "category": "No"}
{"residueString": "GGAUAGCAAUAUUACGGACA", "category": "Yes"}
{"residueString": "GAACAGCAAUAUUACGUUGC", "category": "No"}
{"residueString": "ACUGAGCAAUAUUACGGAAG", "category": "No"}
{"residueString": "ACUUAGCAAUAUUACGGGGU", "category": "No"}
{"residueString": "AGUAAGCAAUAUUACGUCUG", "category": "No"}
{"residueString": "CUAUAGCAAUAUUACGAUUC", "category": "No"}
